Protocol description: gradient 5% acetonitrile 3 min, to 50% in 2 min, to 85% in 15 min, held 3 min, 100 µL/min
Study conditions: column: Zorbax Extend-C18 2.1 x 50 mm; eluents: water / acetonitrile, 0.1% formic acid
Lab note: compare RP-LC retention time with 900 s, writing Met if less and Not met if equal or more.

*Q* Is the reported RP-LC retention time for O=C1Nc2ccccc2SC1C(=O)N1CCC(C(=O)N2CCN(c3ccccc3F)CC2)CC1 (stereo not given) strictly below 900 s?
*A* Met

*Q* Is the reported RP-LC retention time for Cc1ccc(-c2coc(-c3ccc(NC(=O)c4ccco4)cc3)n2)c(C)c1 strictly below 900 s?
*A* Not met

*Q* Is the reported RP-LC retention time for CCCCOc1ccc(C(=O)N2CCOC(c3ccccc3)C2)cc1 (stereo not given) strictly below 900 s?
*A* Not met

*Q* Is the reported RP-LC retention time for COc1ccc(-c2noc(CN3CCN(c4ccccc4)CC3)n2)cc1OC strictly below 900 s?
*A* Met

*Q* Is the reported RP-LC retention time for O=C(c1ccc2c(c1)nnn2CCN1CCOCC1)N1CCSCC1 strictly below 900 s?
*A* Met

*Q* Is the reported RP-LC retention time for CCC(C)NC(=O)c1n[nH]c2c1CCCCCC2 (stereo not given) strictly below 900 s?
*A* Met

*Q* Is the reported RP-LC retention time for CCCN1C(=O)c2c(C(=O)N3CCOCC3)ncn2CC1(C)C(=O)NCc1ccc(F)cc1 (stereo not given) strictly below 900 s?
*A* Met

*Q* Is the reported RP-LC retention time for COC(=O)C1=C(C)N(Cc2ccccc2)C(=O)NC1c1ccccc1[N+](=O)[O-] (stereo not given) strictly below 900 s?
*A* Met

*Q* Is the reported RP-LC retention time for CCCNc1cc(N2CCC(CCC(=O)Nc3ccc4c(c3)OCCO4)CC2)ncn1 strictly below 900 s?
*A* Met

*Q* Is the reported RP-LC retention time for CCc1nnc(-c2ccc3ccn(CC(=O)N4CCN(c5ccc(Cl)cc5)CC4)c3c2)o1 strictly below 900 s?
*A* Not met

*Q* Is the reported RP-LC retention time for COc1ccc(C(=O)Nc2nc(CC(=O)Nc3nc4c(C)cccc4s3)cs2)cc1 strictly below 900 s?
*A* Not met

*Q* Is the reported RP-LC retention time for CCN1CCN(c2nc3c(c(Nc4ccccc4)n2)C(=O)CCC3)CC1 strictly below 900 s?
*A* Not met
